Origin of the recorded values: patent US5151414A

- tested.target: α1 receptor (rat cerebral cortex)
- assay.method.text: α1 receptor binding on rat cerebral cortex
- Source text: The α1 -antagonistic activity has been evaluated as receptor binding on rat cerebral cortex and as antagonism to contraction induced by phenylephrine (α1 -agonist) on rabbit aorta.
measured.property: IC50 (nM)
Note: unit nM is implicit; provide only the numeric part.

Which IC50 is listed for CCCN(CCOc1c(Cl)cccc1Cl)C1CCc2c(ccc(O)c2O)C1.Cl (stereo not shown) [Compound A, hydrochloride] ? 76
